Tested on: MDA-MB-321 cell line
Assay: Cell viability assay (Hoechst 33342/PI, ImageXpress)
Type: cell-based
Conditions: MDA-MB-321, 48 h; Table 3; read-out: MDA-MB-321 cell line IC50 (uM) 48 h
property-name: IC50 (µM)
// return numeric value only (unit: µM, not printed)

CC(C)CCC[C@@H](C)[C@H]1CC[C@H]2[C@@H]3C(=O)C=C4C[C@@H](O)CC[C@]4(C)[C@H]3CC[C@]12C [Ox-1, 7-Ketocholesterol]
50.4
CC(C)CCCC(C)C1CCC2C3CC(O)C4CC(O)CC[C@]4(C)C3CC[C@]12C (stereo in doubt) [Ox-4, (3α,5β,6α)-cholestane-3,6-diol]
39.7
CC(C)CCCC(C)C1CCC2C3CC(O)C4(O)CC(O)CC[C@]4(C)C3CC[C@]12C (stereo in doubt) [Ox-2, Cholestane-3α-5β-6α-triol]
21.1

Attention now turns to another entry.
# get_value(readout='IC50', item= CC(=O)O[C@H]1CC[C@@]2(C)C(=CC(=O)[C@H]3[C@@H]4CC[C@H]([C@H](C)CCCC(C)C)[C@@]4(C)CC[C@@H]32)C1 [Ox-6, 7-oxocholest-5-en-3-β-yl acetate] )
8560

// data source = patent US11332494B2
